Recorded pKd, one value per entry.
SUBJECT OF TEST: Tremfya Fab with a lambda light chain and binding specificity for IL23 (from the monoclonal antibody guselkumab)
MEASUREMENT DESCRIPTION: BLI (ForteBio), biotinylated ligand on sensor, 1:1 fit
pKd is defined as minus the log10 of a concentration measured in mol/L.

BINDER	pKd
affinity ligand SEQ ID NO: 91 (designed binder, biotinylated (AviTag system)) MGGGGSAAAGDEAQRWENQGAAYAARGDYDRAIEYYGRALELDPNNAWAWWELGVAYAARGDYDRAIEYYERALELDPDDATAWSRLGHAYAARGDYDRAIEYYERALELDPENETARYLLEHARRARQGQAGQGGGSGLNDIFEAQKIEWHECHHHHHH	7.96

Now for another entry.
Record affinity ligand SEQ ID NO: 94 (designed binder, biotinylated (AviTag system)) MGGGGSAAAGDEAVRWEIQGAAYAARGDYDRAIEYYERALELDPNNAWAWWELGVAYAARGDYDRAIEYYERALELDPDDAHVWFRLGWAYAVRGDYDRAIEYYERALELDPEDELARRILEDARRARQGQAGQGGGSGLNDIFEAQKIEWHECHHHHHH , field pKd: 8.52
